Data origin: ChEMBL document CHEMBL1135949

Target: Glutamate receptor ionotropic, kainate 5 (Homo sapiens, UniProt Q16478)
Sequence (Q16478 whole entry): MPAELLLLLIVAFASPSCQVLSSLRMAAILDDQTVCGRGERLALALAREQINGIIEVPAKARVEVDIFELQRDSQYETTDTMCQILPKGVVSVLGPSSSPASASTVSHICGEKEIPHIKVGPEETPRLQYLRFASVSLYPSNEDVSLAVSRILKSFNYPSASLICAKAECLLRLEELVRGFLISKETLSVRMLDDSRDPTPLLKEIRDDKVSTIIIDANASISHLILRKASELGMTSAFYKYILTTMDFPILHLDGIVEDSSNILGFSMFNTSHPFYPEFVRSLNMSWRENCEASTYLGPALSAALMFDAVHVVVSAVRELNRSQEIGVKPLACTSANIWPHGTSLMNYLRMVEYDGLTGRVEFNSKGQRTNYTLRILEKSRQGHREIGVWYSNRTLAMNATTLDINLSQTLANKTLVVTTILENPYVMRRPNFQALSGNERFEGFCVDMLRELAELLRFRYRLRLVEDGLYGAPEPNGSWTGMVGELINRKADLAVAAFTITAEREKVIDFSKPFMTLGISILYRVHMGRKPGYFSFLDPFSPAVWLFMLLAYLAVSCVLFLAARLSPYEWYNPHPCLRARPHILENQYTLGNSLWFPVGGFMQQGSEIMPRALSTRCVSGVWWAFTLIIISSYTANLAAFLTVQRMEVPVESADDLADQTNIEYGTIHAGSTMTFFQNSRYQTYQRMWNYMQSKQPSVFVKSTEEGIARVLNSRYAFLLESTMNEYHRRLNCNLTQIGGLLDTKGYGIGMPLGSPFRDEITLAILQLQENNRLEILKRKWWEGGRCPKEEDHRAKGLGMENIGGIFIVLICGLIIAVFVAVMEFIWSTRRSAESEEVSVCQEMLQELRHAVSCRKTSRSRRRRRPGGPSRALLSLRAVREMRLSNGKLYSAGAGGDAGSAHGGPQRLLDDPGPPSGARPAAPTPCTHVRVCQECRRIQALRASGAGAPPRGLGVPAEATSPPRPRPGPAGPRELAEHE
Test: Binding affinity towards cloned human Kai-2 subunit stably expressed in cultured HEK293 cells using [3]H-kainate as radioligand
Format: cell-based
pKi: −log10 of the molar value.
assay metric: pKi

                           smiles_structure  readout_value
0  O=C(O)Cn1c(=O)c(=O)[nH]c2cc([N+](=O)[O-])c(-n3ccc(CN4CCN(Cc5ccccc5)CC4)c3)cc21           4.70
1  O=C(O)Cn1c(=O)c(=O)[nH]c2cc([N+](=O)[O-])c(-n3ccc(CNCCCc4ccccc4)c3)cc21           4.70
2  O=C(O)Cn1c(=O)c(=O)[nH]c2cc([N+](=O)[O-])c(-n3ccc(CN4CCN(CCc5ccccc5)CC4)c3)cc21           4.60
3  O=C(O)CCn1c(=O)c(=O)[nH]c2cc([N+](=O)[O-])c(-n3cccc3)cc21           4.60
